Molecular target: Integrin beta3 (CD61, GP3A), overexpressed on A549-ITGB3-OE cells (Homo sapiens)
Sequence: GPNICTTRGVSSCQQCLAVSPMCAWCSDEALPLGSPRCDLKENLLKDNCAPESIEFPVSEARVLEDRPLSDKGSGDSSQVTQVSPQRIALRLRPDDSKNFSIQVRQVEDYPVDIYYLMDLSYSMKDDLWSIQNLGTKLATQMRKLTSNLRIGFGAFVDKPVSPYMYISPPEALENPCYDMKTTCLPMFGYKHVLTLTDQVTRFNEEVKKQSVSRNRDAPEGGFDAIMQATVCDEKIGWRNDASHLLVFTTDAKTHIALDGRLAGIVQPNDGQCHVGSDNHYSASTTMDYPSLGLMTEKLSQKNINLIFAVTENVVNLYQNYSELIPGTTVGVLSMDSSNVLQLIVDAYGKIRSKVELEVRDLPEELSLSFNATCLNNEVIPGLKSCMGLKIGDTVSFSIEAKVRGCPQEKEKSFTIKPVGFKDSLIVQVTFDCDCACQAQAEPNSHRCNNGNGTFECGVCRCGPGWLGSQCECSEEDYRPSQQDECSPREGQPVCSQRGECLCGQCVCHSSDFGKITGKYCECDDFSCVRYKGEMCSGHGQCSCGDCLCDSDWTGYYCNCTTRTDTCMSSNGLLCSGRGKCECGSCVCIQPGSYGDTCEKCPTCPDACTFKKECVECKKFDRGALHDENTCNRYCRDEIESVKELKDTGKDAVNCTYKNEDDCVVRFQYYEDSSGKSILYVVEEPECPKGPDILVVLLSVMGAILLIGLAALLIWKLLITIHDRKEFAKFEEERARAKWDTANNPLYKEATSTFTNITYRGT
Assay: flow cytometry
Conditions: live A549-ITGB3-OE cells, FAM label; PBS with 5 mM MgCl2, 4.5 g/L glucose, 100 ug/mL tRNA; 4 C, 30 min; pH not stated; pull-down on ice 30 min
quantity: Kd (nM)

>>> experimental_value("TTCAGCACTCCACGCATAGCTCCACGATGTAGGATCCACATGAGCGCTCCTGTTACCCTGCCTATGCGTGCTACCGTGAA [S10]")
71.4
>>> experimental_value("TCCACGATGTAGGATCCACATGAGCGCTCCTGTTACCCTG [S10yh2]")
61.2
